meta.source: ChEMBL document CHEMBL4414569

Hi there, I'd appreciate the recorded pIC50 for every entry that follows.
# Assay target: UniProt:P09917
# Sequence (P09917 whole entry): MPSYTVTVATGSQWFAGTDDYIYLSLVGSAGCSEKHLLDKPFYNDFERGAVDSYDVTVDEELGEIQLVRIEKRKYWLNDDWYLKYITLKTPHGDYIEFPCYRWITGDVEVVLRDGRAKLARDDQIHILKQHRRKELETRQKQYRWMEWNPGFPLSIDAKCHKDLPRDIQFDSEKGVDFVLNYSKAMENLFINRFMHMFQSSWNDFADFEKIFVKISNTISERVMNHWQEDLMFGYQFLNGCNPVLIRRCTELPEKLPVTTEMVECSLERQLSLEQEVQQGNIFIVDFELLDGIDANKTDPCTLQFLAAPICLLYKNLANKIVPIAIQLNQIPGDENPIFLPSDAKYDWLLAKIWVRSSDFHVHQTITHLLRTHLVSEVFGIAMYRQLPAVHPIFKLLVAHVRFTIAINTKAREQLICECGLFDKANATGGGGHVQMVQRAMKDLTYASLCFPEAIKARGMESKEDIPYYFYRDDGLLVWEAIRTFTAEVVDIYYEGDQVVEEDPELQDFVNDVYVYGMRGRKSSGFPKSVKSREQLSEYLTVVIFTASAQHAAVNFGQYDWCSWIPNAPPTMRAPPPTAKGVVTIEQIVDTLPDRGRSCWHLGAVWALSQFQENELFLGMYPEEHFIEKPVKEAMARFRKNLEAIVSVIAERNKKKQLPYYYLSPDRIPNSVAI
# Protocol notes: Inhibition of recombinant human 5-lipoxygenase using arachidonic acid as substrate preincubated for 10 mins followed by susbtrate addition and measured after 10 mins by reverse phase HPLC method
Numbers only, as −log10 of the molar value.

Solved entries (count: 5):
NC[C@H](CCCCNC(=O)c1ccccc1O)NC(=O)c1cccc(O)c1O :: 5.00
NC[C@H](CCCCNC(=O)c1cccc(O)c1O)NC(=O)c1ccccc1O :: 5.25
O=C(NCCCC[C@H]1CN=C(c2cccc(O)c2O)N1)c1c(O)cccc1F :: 5.96
NC[C@H](CCCCNC(=O)c1cccc(O)c1O)NC(=O)c1c(O)cccc1F :: 5.03
O=C(NCCCC[C@H]1CN=C(c2c(O)cccc2F)N1)c1cccc(O)c1O :: 5.66

Hey, can you go through the list below and give me pIC50 for every item?
1. O=C(NCCCC[C@H]1CN=C(c2ccccc2O)N1)c1cccc(O)c1O
2. NC[C@H](CCCCNC(=O)c1cccc(O)c1O)NC(=O)c1cccc(O)c1O
3. O=C(NCCCC[C@H]1CN=C(c2cccc(O)c2O)N1)c1cccc(O)c1O
4. O=C(NCCCC[C@H]1CN=C(c2cccc(O)c2O)N1)c1ccccc1O
5. O=C(NCCCC[C@@H](CO)NC(=O)c1cccc(O)c1O)c1cccc(O)c1O

[5.82, 5.85, 6.05, 5.66, 5.72]
